All figures here come from patent US20210087522.

Target: T1, FNsACP, homolog of ArCPNp from Fischerella
T1 chain: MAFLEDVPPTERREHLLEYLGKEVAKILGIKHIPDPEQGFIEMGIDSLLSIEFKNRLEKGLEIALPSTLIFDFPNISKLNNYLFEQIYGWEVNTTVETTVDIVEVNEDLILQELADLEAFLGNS
RECORDED ENDPOINT: kcat
// return the numeric value with its unit appended

Consider the worked cases shown below.
INSERT INTO measurements (protein, recorded_endpoint, assay_value) VALUES
  ('MPPT, Sfp-like phosphopantetheinyl transferase (PPTase) from Microcystis aeruginosa NIES843 (protein) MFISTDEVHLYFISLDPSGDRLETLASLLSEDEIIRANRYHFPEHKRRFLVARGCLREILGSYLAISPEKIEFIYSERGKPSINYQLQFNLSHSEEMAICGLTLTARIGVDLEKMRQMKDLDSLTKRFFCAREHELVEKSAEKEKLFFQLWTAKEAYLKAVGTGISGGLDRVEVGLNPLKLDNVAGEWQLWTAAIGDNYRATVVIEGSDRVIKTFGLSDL', 'kcat', '0.035 s⁻¹'),
  ('Sfp, phosphopantetheinyl transferase from Bacillus subtilis (protein) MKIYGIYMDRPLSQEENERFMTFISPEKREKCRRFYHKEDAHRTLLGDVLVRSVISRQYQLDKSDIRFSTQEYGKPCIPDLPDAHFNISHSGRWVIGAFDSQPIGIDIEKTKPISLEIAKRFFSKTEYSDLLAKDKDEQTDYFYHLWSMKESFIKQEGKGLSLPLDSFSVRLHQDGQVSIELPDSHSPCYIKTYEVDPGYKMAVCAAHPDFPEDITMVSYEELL', 'kcat', '0.04 s⁻¹');

Consider now this further protein.
INPUT: Recorded kcat of SPPT, Sfp-like phosphopantetheinyl transferase (PPTase) from Synechocystis sp. PCC6803 (protein) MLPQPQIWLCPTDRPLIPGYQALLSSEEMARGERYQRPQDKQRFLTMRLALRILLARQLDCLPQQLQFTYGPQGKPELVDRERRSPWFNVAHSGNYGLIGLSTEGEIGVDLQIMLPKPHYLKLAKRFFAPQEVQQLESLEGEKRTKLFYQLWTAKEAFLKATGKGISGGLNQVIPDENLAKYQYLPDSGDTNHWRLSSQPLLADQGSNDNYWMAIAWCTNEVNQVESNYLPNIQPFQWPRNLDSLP , please.
OUTPUT: 0.025 s⁻¹
